assay: NCI Yeast Anticancer Drug Screen. Data for the rad18 strain (AID 177); settings: S. cerevisiae rad18 mutant growth inhibition; at 1.2 µM; stronger effect = higher value
Compounds without any hit were thinned out: in the full panel of roughly 79,000, 15% have a hit.
For each entry below, report its growth inhibition value.
Answers are plain numbers, in %.

>>> df
                                   compound  experimental_result
0                  O=C(/C=C/c1ccsc1)c1cccs1                   -3
1            COC(=O)C(=O)CC(=O)c1cccc(OC)c1                   -6
2  CC(=O)Oc1ccc2c(c1)Cc1cc(N3C(=O)C=CC3=O)ccc1-2                   10

For every record below, what is its growth inhibition?
1. C=COC(=O)N[C@H]1CCc2cc(OC)c(OC)c(OC)c2-c2ccc(SC)c(=O)cc21
2. CCN(CC)CCNc1ccc2nc(C)n3c4ccc(OC)cc4c(=O)c1c23

A:
[-2, 34]

Please give growth inhibition, item by item, for the list that follows.
1. CO[C@@]1([C@@H](Cl)c2ccccc2)C(=O)N(C)/C(=C\c2ccccc2)C(=O)N1C
2. CN(C)N=Nc1ccc(N(C)C)cc1
3. Cc1c2cc[n+](CCO)cc2c(C)c2c1[nH]c1ccc(O)cc12

A:
1: 0; 2: 1; 3: 20
